# measured.on: human KDR enzyme (Homo sapiens)
# Construct: The cytoplasmic domain of the human KDR enzyme; GST; made in house; host or cells: SF21 insect cells (baculovirus)
# Sequence (P35968 786-1356 limits assumed): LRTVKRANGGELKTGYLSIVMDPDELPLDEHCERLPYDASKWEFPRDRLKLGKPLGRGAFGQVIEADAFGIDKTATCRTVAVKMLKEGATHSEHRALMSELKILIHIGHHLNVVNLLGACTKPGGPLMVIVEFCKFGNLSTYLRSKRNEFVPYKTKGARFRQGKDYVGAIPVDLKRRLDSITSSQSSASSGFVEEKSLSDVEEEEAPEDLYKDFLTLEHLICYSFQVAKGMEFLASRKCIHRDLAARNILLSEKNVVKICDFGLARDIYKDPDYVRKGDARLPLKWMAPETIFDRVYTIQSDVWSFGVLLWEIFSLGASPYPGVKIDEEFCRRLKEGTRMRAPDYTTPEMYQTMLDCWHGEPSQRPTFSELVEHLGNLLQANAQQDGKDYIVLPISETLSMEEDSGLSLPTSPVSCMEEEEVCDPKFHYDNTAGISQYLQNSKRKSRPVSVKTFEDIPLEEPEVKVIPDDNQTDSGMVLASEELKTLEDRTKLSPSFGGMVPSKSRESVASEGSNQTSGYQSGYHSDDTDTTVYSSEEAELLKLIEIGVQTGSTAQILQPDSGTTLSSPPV
# assay.details: KDR substrate (PLCγ) phosphorylation, scintillation assay
# Format: biochemical
# condition.label: 10 μM; read-out: KDR % inhib at 10 μM
Field: inhibition at 10 µM. Provide a value for each of the molecules that follow.
# number only, unit % dropped from output

Reported inhibition at 10 µM of COC(=O)c1ccc(-c2n[nH]c3ccc(NS(=O)(=O)c4ccccc4S(C)(=O)=O)cc23)cc1 [Example 68] : 85

Reported inhibition at 10 µM of CS(=O)(=O)c1ccccc1S(=O)(=O)Nc1ccc2[nH]nc(-c3csc4ccccc34)c2c1 [Example 64] : 41

Reported inhibition at 10 µM of CS(=O)(=O)c1ccccc1S(=O)(=O)Nc1ccc2[nH]nc(CCc3ccccc3)c2c1 [Example 90] : 45

Reported inhibition at 10 µM of Cc1cc(-c2n[nH]c3ccc(NS(=O)(=O)c4ccccc4S(C)(=O)=O)cc23)ccc1F [Example 222] : 49

Reported inhibition at 10 µM of O=S(=O)(Cc1ccccc1)Nc1ccc2[nH]nc(-c3ccccc3)c2c1 [Example 125] : 56

Reported inhibition at 10 µM of O=[N+]([O-])c1ccccc1S(=O)(=O)Nc1ccc2[nH]nc(-c3ccccc3)c2c1 [Example 113] : 88

Reported inhibition at 10 µM of O=S(=O)(Nc1ccc2[nH]nc(-c3ccccc3)c2c1)c1ccc(Cl)c(Cl)c1 [Example 8] : 81

Reported inhibition at 10 µM of CCCS(=O)(=O)Nc1ccc2[nH]nc(-c3ccccc3)c2c1 [Example 128] : 49

Reported inhibition at 10 µM of Nc1n[nH]c2ccc(NS(=O)(=O)c3cccc(F)c3)cc12 [Example 26] : 24

Reported inhibition at 10 µM of O=[N+]([O-])c1ccc(S(=O)(=O)Nc2ccc3[nH]nc(-c4ccccc4)c3c2)cc1 [Example 119] : 78

Reported inhibition at 10 µM of COc1ccc(-c2n[nH]c3ccc(NS(=O)(=O)c4ccccc4)cc23)cc1 [Example 31] : 98

Reported inhibition at 10 µM of CS(=O)(=O)c1ccccc1S(=O)(=O)Nc1ccc2[nH]nc(-c3ccc(Cl)s3)c2c1 [Example 181] : 49

Reported inhibition at 10 µM of CC(C)c1ccc(-c2n[nH]c3ccc(NS(=O)(=O)c4ccccc4S(C)(=O)=O)cc23)cc1 [Example 201] : 50

Reported inhibition at 10 µM of CS(=O)(=O)c1ccccc1S(=O)(=O)Nc1ccc2[nH]nc(Nc3ccccc3)c2c1 [Example 83] : 60

Reported inhibition at 10 µM of O=S(=O)(Nc1ccc2[nH]nc(-c3ccccc3)c2c1)C1CCCCC1 [Example 99] : 46

Reported inhibition at 10 µM of CC(=O)Nc1n[nH]c2ccc(NS(=O)(=O)c3ccccc3S(C)(=O)=O)cc12 [Example 43] : 25

Reported inhibition at 10 µM of O=S(=O)(Nc1ccc2[nH]nc(-c3cc4ccccc4[nH]3)c2c1)c1ccccc1 [Example 82] : 100

Reported inhibition at 10 µM of Cc1ccccc1-c1n[nH]c2ccc(NS(=O)(=O)c3ccccc3S(C)(=O)=O)cc12 [Example 105] : 28

Reported inhibition at 10 µM of CS(=O)(=O)c1ccccc1S(=O)(=O)Nc1ccc2[nH]nc(NCc3ccccc3)c2c1 [Example 36] : 23

Reported inhibition at 10 µM of O=S(=O)(Nc1ccc2[nH]nc(-c3ccccc3)c2c1)c1ccc(-c2ccon2)s1 [Example 150] : 75

Reported inhibition at 10 µM of O=S(=O)(Nc1ccc2[nH]nc(Cl)c2c1)c1cccc(F)c1 [Example 3] : 22

* * *

# measured.on: human FAK (Homo sapiens)
# Construct: The complete cDNA of human FAK; made in house; host or cells: baculovirus expression system (vector pFastBac HTc)
# Sequence (Q05397 whole entry): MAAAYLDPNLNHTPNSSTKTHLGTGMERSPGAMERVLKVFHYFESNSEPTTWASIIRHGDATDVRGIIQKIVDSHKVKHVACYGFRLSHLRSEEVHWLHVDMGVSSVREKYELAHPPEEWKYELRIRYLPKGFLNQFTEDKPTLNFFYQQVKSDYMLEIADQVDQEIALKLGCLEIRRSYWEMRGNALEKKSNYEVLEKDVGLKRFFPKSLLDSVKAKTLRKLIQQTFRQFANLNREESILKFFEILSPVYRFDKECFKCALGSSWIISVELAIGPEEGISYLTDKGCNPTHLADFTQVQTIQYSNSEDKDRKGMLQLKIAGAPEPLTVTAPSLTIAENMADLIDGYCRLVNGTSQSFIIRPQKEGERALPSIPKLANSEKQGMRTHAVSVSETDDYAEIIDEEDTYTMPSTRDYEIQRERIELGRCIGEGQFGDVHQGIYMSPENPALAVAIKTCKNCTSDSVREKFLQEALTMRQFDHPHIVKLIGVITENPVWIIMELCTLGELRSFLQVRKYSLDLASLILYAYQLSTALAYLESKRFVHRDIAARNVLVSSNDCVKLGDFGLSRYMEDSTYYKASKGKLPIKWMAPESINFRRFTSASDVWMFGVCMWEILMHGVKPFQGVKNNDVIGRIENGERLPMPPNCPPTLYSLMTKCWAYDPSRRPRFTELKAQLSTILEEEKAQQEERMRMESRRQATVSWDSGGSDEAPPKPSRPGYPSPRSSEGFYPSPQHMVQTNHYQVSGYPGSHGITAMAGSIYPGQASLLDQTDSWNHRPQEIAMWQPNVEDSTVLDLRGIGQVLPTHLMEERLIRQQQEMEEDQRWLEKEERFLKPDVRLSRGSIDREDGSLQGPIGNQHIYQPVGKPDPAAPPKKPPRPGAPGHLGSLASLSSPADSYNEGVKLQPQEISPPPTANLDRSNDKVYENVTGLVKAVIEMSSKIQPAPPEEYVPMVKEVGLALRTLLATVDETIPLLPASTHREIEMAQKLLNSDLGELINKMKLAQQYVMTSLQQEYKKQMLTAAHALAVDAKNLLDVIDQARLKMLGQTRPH
# assay.details: FAK autophosphorylation inhibition, time resolved fluorescence (HTRF) assay
# Type: biochemical
# condition.label: 10 μM (values without asterisk); read-out: FAK % inhib at 10 μM
Lab note: anything with inhibition at 10 µM at or over 70% counts as Yes; the rest go in No.

Input: Could you verify whether the entry Cc1cc(-c2n[nH]c3ccc(NS(=O)(=O)c4ccccc4S(C)(=O)=O)cc23)ccc1F shows inhibition at 10 µM of no less than 70%?
Output: Yes

Input: Could you verify whether the entry CS(=O)(=O)c1ccccc1S(=O)(=O)Nc1ccc2[nH]nc(-c3ccncc3)c2c1 shows inhibition at 10 µM of no less than 70%?
Output: Yes

Input: Could you verify whether the entry CS(=O)(=O)c1ccccc1S(=O)(=O)Nc1ccc2[nH]nc(-c3ccccc3-c3ccccc3)c2c1 shows inhibition at 10 µM of no less than 70%?
Output: No

Input: Could you verify whether the entry COc1ccc(S(=O)(=O)Nc2ccc3[nH]nc(-c4ccccc4)c3c2)cc1 shows inhibition at 10 µM of no less than 70%?
Output: No

Input: Could you verify whether the entry CS(=O)(=O)c1ccccc1S(=O)(=O)Nc1ccc2[nH]nc(-c3cccc4c3oc3ccccc34)c2c1 shows inhibition at 10 µM of no less than 70%?
Output: No

Input: Could you verify whether the entry Cc1ccc(-c2n[nH]c3ccc(NS(=O)(=O)c4ccccc4S(C)(=O)=O)cc23)cc1N shows inhibition at 10 µM of no less than 70%?
Output: Yes

Input: Could you verify whether the entry CS(=O)(=O)c1ccccc1S(=O)(=O)Nc1ccc2[nH]nc(-c3ccc(OCc4ccccc4)c(F)c3)c2c1 shows inhibition at 10 µM of no less than 70%?
Output: No

Input: Could you verify whether the entry CS(=O)(=O)c1ccccc1S(=O)(=O)Nc1ccc2[nH]nc(-c3cc(Cl)cc(Cl)c3)c2c1 shows inhibition at 10 µM of no less than 70%?
Output: Yes

Input: Could you verify whether the entry CS(=O)(=O)c1ccccc1S(=O)(=O)Nc1ccc2[nH]nc(-c3cccnc3)c2c1 shows inhibition at 10 µM of no less than 70%?
Output: Yes

Input: Could you verify whether the entry O=S(=O)(Nc1ccc2[nH]ncc2c1)c1ccccc1 [Example 24, N-(1H-Indazol-5-yl)benzenesulfonamide] shows inhibition at 10 µM of no less than 70%?
Output: Yes

Input: Could you verify whether the entry CS(=O)(=O)c1ccccc1S(=O)(=O)Nc1ccc2[nH]nc(-c3cccc4cccnc34)c2c1 shows inhibition at 10 µM of no less than 70%?
Output: Yes

Input: Could you verify whether the entry CS(=O)(=O)c1ccccc1S(=O)(=O)Nc1ccc2[nH]nc(-c3cc(C(F)(F)F)cc(C(F)(F)F)c3)c2c1 shows inhibition at 10 µM of no less than 70%?
Output: Yes

Input: Could you verify whether the entry CS(=O)(=O)c1ccc(-c2n[nH]c3ccc(NS(=O)(=O)c4ccccc4S(C)(=O)=O)cc23)cc1 shows inhibition at 10 µM of no less than 70%?
Output: Yes

Input: Could you verify whether the entry CS(=O)(=O)c1ccccc1S(=O)(=O)Nc1ccc2[nH]nc(-c3ccc(Cl)cc3)c2c1 shows inhibition at 10 µM of no less than 70%?
Output: Yes

Input: Could you verify whether the entry Nc1n[nH]c2ccc(NS(=O)(=O)c3cccc(F)c3)cc12 shows inhibition at 10 µM of no less than 70%?
Output: Yes

Input: Could you verify whether the entry O=S(=O)(/C=C/c1ccccc1)Nc1ccc2[nH]nc(-c3ccccc3)c2c1 shows inhibition at 10 µM of no less than 70%?
Output: No

Input: Could you verify whether the entry O=S(=O)(Nc1ccc2[nH]nc(-c3ccccc3)c2c1)c1cccnc1 shows inhibition at 10 µM of no less than 70%?
Output: No

Input: Could you verify whether the entry CS(=O)(=O)c1ccccc1S(=O)(=O)Nc1ccc2[nH]nc(-c3cc4ccccc4[nH]3)c2c1 shows inhibition at 10 µM of no less than 70%?
Output: Yes

Input: Could you verify whether the entry Cc1ccc(S(=O)(=O)Nc2ccc3[nH]nc(-c4ccccc4)c3c2)cc1 shows inhibition at 10 µM of no less than 70%?
Output: No

Input: Could you verify whether the entry CS(=O)(=O)c1ccccc1S(=O)(=O)Nc1ccc2[nH]nc(Sc3ccccc3)c2c1 shows inhibition at 10 µM of no less than 70%?
Output: No

Input: Could you verify whether the entry O=S(=O)(Nc1ccc2[nH]nc(-c3ccccc3)c2c1)c1ccc(Br)cc1 shows inhibition at 10 µM of no less than 70%?
Output: No

Input: Could you verify whether the entry CS(=O)(=O)c1ccccc1S(=O)(=O)Nc1ccc2[nH]nc(-c3ccc(Cl)cc3Cl)c2c1 shows inhibition at 10 µM of no less than 70%?
Output: No

Input: Could you verify whether the entry Nc1ccc(S(=O)(=O)Nc2ccc3[nH]nc(-c4ccccc4)c3c2)cc1 shows inhibition at 10 µM of no less than 70%?
Output: No

Input: Could you verify whether the entry CC(C)c1ccc(-c2n[nH]c3ccc(NS(=O)(=O)c4ccccc4S(C)(=O)=O)cc23)cc1 shows inhibition at 10 µM of no less than 70%?
Output: No

Input: Could you verify whether the entry CC(=O)Nc1ccccc1-c1n[nH]c2ccc(NS(=O)(=O)c3cccc(F)c3)cc12 shows inhibition at 10 µM of no less than 70%?
Output: No

Input: Could you verify whether the entry CCSc1ccc(-c2n[nH]c3ccc(NS(=O)(=O)c4ccccc4S(C)(=O)=O)cc23)cc1 shows inhibition at 10 µM of no less than 70%?
Output: Yes

Input: Could you verify whether the entry CNC(=O)c1n[nH]c2ccc(NS(=O)(=O)c3cccc(F)c3)cc12 shows inhibition at 10 µM of no less than 70%?
Output: Yes
